Where these numbers come from: PubChem BioAssay AID1159580

procedureText: chemical genetic growth profiling, strain panel (AID 1159580);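 also: tested at 20 µM; growth read once vehicle control cultures reached saturation at 30 °C; 1 = growth at the plate median or of vehicle wells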
appliedConditions: S. cerevisiae deletion strains, growth OD, locus YFL029C, strain CAK1, active compounds read low
Out of some 5,500 compounds screened, about 2,000 (36%) were called active. Roughly 18% stayed inconclusive and do not appear here. The list shows a part of the results.
valueType: normalized growth
Just the number.

compound: S=c1[nH]nc(Nc2ccc(I)cc2)s1
recordedMeasurement: 0.814
//
compound: Cc1onc(-c2c(Cl)cccc2Cl)c1C(=O)NNc1c(Cl)cccc1Cl
recordedMeasurement: 0.983
//
compound: FC(F)(F)c1cccc(-n2c(CSCc3cccc4ccccc34)n[nH]c2=S)c1
recordedMeasurement: 0.993
//
compound: OC(CN1CCN(c2nc3ccc(Cl)cc3s2)CC1)Cn1ccc2ccccc21 (configuration not stated)
recordedMeasurement: 0.989
//
compound: Cc1cccc(NC(=S)NNC(=O)CSCc2cccc3ccccc23)c1
recordedMeasurement: 0.983

Task: Item CCCCN(C)C(=O)c1cc([N+](=O)[O-])cc2c1-c1ccc([N+](=O)[O-])cc1C2=C(C#N)C#N has what recorded normalized growth?
Result: 0.98

Task: Which normalized growth reading was recorded for the compound Cc1onc(-c2c(Cl)cccc2Cl)c1C(=O)NC(C)(C)CC(C)(C)C ?
Result: 0.998

Task: Please report the recorded normalized growth for CC(C)(C)c1ccc(C(=O)NNc2c(Cl)cccc2Cl)cc1 .
Result: 0.978

Task: Reported normalized growth, compound CC1(C)OC(=O)C(=Cc2cccn2-c2ccc(OC(F)(F)F)cc2)C(=O)O1 : ____
Result: 0.967

Task: Quick check: normalized growth of CC(=O)ON=C1c2cc([N+](=O)[O-])ccc2-c2ccc([N+](=O)[O-])cc21 ?
Result: 0.948

Task: Record request: normalized growth value, item O=C(/C=C/Sc1nc2ccccc2s1)c1ccc(Cl)cc1
Result: 0.977

Task: // normalized growth lookup, key: CC(C)(CCC(C)(C)N1C(=O)c2cccc3cccc(c23)C1=O)N1C(=O)c2cccc3cccc(c23)C1=O
Result: 0.0982

---

procedureText: chemical genetic growth profiling, strain panel (AID 1159580)
appliedConditions: S. cerevisiae deletion strains, growth OD, locus YKL085W, strain MDH1 (second series), active compounds read low
The campaign covered roughly 5,500 compounds. About 2,000 (36%) were called active. Not shown: some 18% with an inconclusive outcome. The list shows a part of the results.
Documented normalized growth across a set of molecules
Lab note: jot down the number only; don't add units.

molecule: CN1C(C(=O)Nc2ccccn2)=C(O)c2ccccc2S1(=O)=O
normalized growth: 0.935
--
molecule: CCCCCCOc1ccccc1C(N)=O
normalized growth: 0.826
--
molecule: CCC(C)c1cnc(CC(C)C)c(=O)n1O (stereo not given)
normalized growth: 0.771

Task: Record request: normalized growth value, item CCN(CC)CCOC(=O)c1ccc(N)cc1
Result: 0.981

Task: Please give the measured normalized growth for this molecule: COC(=O)C1=CCCN(C)C1
Result: 0.997

Task: Quick one: normalized growth of CC(=O)OC1CCC2(C)C(=CC=C3C2CCC2(C)C3CCC2C(C)/C=C/C(C)C(C)C)C1(C)C (stereo not given) ?
Result: 1

Task: GET /values?readout=normalized growth&item= C=C1C(C)C2C(Cc3ccccc3)NC(=O)C23OC(=O)/C=C/C(=O)CCCC(C)C/C=C/C3C1O (stereo not given)
Result: 0.977

Task: Fill in the blank: the reported normalized growth of O=S1OCC2C(CO1)C1(Cl)C(Cl)=C(Cl)C2(Cl)C1(Cl)Cl (stereo not given) is ____.
Result: 0.982

Task: Quick one: normalized growth of CC1(C)O[C@@H]2CC3C4CCC5=CC(=O)CCC5(C)C4(F)C(O)CC3(C)[C@]2(C(=O)CCl)O1 (stereo not given in full) ?
Result: 0.975

Task: Entry under review: O=C(O)CN(CC(=O)O)Cc1cc2c(-c3ccccc3C(=O)O)c3cc(CN(CC(=O)O)CC(=O)O)c(=O)cc-3oc2cc1O . Reported normalized growth?
Result: 1.01

---

procedureText: chemical genetic growth profiling, strain panel (AID 1159580)
appliedConditions: S. cerevisiae deletion strains, growth OD, locus YCR088W, strain abp1, active compounds read low
Out of some 5,500 compounds screened, about 2,000 (36%) were called active. About 18% were inconclusive and are not listed. Some of the results follow.
Assign labels as follows, please: Met for normalized growth below 1; Not met for normalized growth equal to or exceeding 1.

compound: CC(C)COCC(CN(Cc1ccccc1)c1ccccc1)N1CCCC1 (stereo not drawn)
assignedClass: Not met

Task: Would you kindly verify if normalized growth of Cc1c(Cl)cccc1Nc1ccccc1C(=O)O is strictly less than 1?
Result: Met

Task: Is normalized growth of Cc1cccc(Nc2ccccc2C(=O)O)c1C strictly below 1?
Result: Met

Task: Is 1 strictly greater than the compound's reported normalized growth? compound: O=C1OC2(c3ccc(O)cc3Oc3cc(O)ccc32)c2ccccc21
Result: Not met

Task: Please check: normalized growth for CO/N=C(\C(=O)N[C@@H]1C(=O)N2C(C(=O)O)=C(CSc3nc(=O)c(O)nn3C)CS[C@H]12)c1csc(N)n1 , strictly under 1 or not?
Result: Met

Task: Is the reported normalized growth for Cc1ccc(Cl)c(Nc2ccccc2C(=O)O)c1Cl strictly below 1?
Result: Met

---

# key: entry, value: normalized growth
procedureText: chemical genetic growth profiling, strain panel (AID 1159580);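 also: tested at 20 µM; growth read once vehicle control cultures reached saturation at 30 °C; 1 = growth at the plate median or of vehicle wells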
appliedConditions: S. cerevisiae deletion strains, growth OD, locus YBR231C, strain swc5, active compounds read low
In all, about 5,500 compounds went through this assay and about 2,000 (36%) were called active. Roughly 18% stayed inconclusive and do not appear here. Some of the results follow.
Format: numeric value only, no unit, no commentary.

Example entries begin here.
compound: CC(C)NC[C@H](O)COc1cccc2ccccc12
recordedMeasurement: 0.989
--
compound: CC(C)NCC(O)c1cc(O)cc(O)c1 (stereo unspecified)
recordedMeasurement: 0.993
--
compound: NS(=O)(=O)c1cc2c(cc1Cl)NC(C(Cl)Cl)NS2(=O)=O (stereo unspecified)
recordedMeasurement: 0.979
--
compound: O=C1[C@H](CCC(O)c2ccc(F)cc2)[C@@H](c2ccc(O)cc2)N1c1ccc(F)cc1 (stereo partly specified)
recordedMeasurement: 0.976
--
compound: O=c1[nH]oc2c1CCNC2
recordedMeasurement: 0.976
--
compound: C=C1CCC(OC(C)=O)/C(C)=C/C[C@@H]2[C@@H]1CC2(C)C (stereo partly specified)
recordedMeasurement: 1.01
--
compound: CC1OC1P(=O)(O)O (stereo unspecified)
recordedMeasurement: 0.992
--
compound: COc1ccc(-c2coc3cc(OC)cc(OC)c3c2=O)cc1
recordedMeasurement: 0.989
--
compound: CC(C)C(C)/C=C/C(C)C1CCC2C3=CC=C4CC(O)CCC4(C)C3CCC21C (stereo unspecified)
recordedMeasurement: 1
--
compound: C=C1CCC2C(CC2(C)C)C(=O)CCC1O (stereo unspecified)
recordedMeasurement: 1.01

Now for the compound whose normalized growth we want.
Task: Entry under review: CC(C)NCC(O)COc1cccc2ccccc12 (stereo unspecified) . Reported normalized growth?
Result: 1.02

---

procedureText: chemical genetic growth profiling, strain panel (AID 1159580);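 also: tested at 20 µM; growth read once vehicle control cultures reached saturation at 30 °C; 1 = growth at the plate median or of vehicle wells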
appliedConditions: S. cerevisiae deletion strains, growth OD, locus YMR125W, strain sto1, active compounds read low
Screen size: about 5,500 compounds; about 2,000 (36%) were called active. Roughly 18% stayed inconclusive and do not appear here. The list shows a part of the results.
valueType: normalized growth
Note: the reply should be a number with no unit written.

molecule: CC(C)(Oc1ccc(C2CC2(Cl)Cl)cc1)C(=O)O (configuration not stated)
recordedMeasurement: 0.996

Task: Any idea what normalized growth was measured for COc1ccc([C@H]2Oc3cc(OC)cc(OC)c3C[C@H]2O)cc1 ?
Result: 1.01

Task: Can you share its normalized growth? I mean this molecule: Nc1nc2ncc(=O)[nH]c2c(=O)[nH]1
Result: 0.969

---

procedureText: chemical genetic growth profiling, strain panel (AID 1159580);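 also: tested at 20 µM; growth read once vehicle control cultures reached saturation at 30 °C; 1 = growth at the plate median or of vehicle wells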
appliedConditions: S. cerevisiae deletion strains, growth OD, locus YJL134W, strain LCB3, active compounds read low
The campaign covered roughly 5,500 compounds. About 2,000 (36%) were called active. Another 18% or so got no clear call; they are omitted. The list shows a part of the results.
valueType: normalized growth
API doc: respond with a numeric literal and nothing else, no unit.

compound: CCOC(=O)[C@H](CCc1ccccc1)N[C@@H](C)C(=O)N1[C@H](C(=O)O)C[C@@H]2CCC[C@@H]21
normalized growth: 1.01
//
compound: CC[C@H](C)C(=O)O[C@H]1CCC=C2C=C[C@H](C)C(CCC3C[C@@H](O)CC(=O)O3)[C@H]21 (stereo not given in full)
normalized growth: 0.977
//
compound: CC1(C)O[C@@H]2CC3C4CCC5=CC(=O)CCC5(C)C4(F)C(O)CC3(C)[C@]2(C(=O)CCl)O1 (stereo not given in full)
normalized growth: 0.989
//
compound: C=C1CCC2C(CC2(C)C)C(=O)CCC1O (stereo not given)
normalized growth: 1.01
//
compound: Oc1ccc2c(c1)OCC1c3cc4c(cc3OC21)OCO4 (stereo not given)
normalized growth: 0.992

Task: // normalized growth lookup, key: CC(C)NNC(=O)c1ccncc1
Result: 1.01

Task: # normalized growth lookup, item CC(C)(C)CC(C)(C)c1ccc(O)c(Cc2ccc(Cl)cc2Cl)c1
Result: 1.01

Task: Please report the recorded normalized growth for CC[C@H](C)C(=O)O[C@H]1C[C@@H](C)C=C2C=C[C@H](C)[C@H](CC[C@@H]3C[C@@H](O)CC(=O)O3)[C@H]21 .
Result: 0.979

Task: Can you share its normalized growth? I mean this compound: C=C1C(C)C2C(Cc3ccccc3)NC(=O)C23OC(=O)/C=C/C(O)CCCC(C)C/C=C/C3C1O (stereo not given)
Result: 1

Task: For the compound shown here, CCN(CC)CCOC(=O)c1ccc(N)cc1 , give the reported normalized growth.
Result: 0.999

Task: What measured normalized growth goes with COc1ccc2c(c1OC)C(=O)OC2[C@H]1c2c(cc3c(c2OC)OCO3)CCN1C (stereo not given in full) ?
Result: 0.996

Task: // query normalized growth value for entry COc1cc([C@@H]2c3cc4c(c(O)c3C[C@H]3COC(=O)[C@@H]32)OCO4)cc(OC)c1OC
Result: 0.982

Task: Which normalized growth is reported for this compound? C[C@@H]1C(=O)OC2[C@H](O)C34[C@@H]5OC(=O)[C@@]3(O[C@@H]3OC(=O)[C@H](O)[C@@]34[C@H](C(C)(C)C)[C@H]5O)[C@]21O (stereo not given in full)
Result: 1

Task: Give the measured normalized growth of CC1(C)NC(=O)N(c2ccc([N+](=O)[O-])c(C(F)(F)F)c2)C1=O .
Result: 1.01

Task: What normalized growth value was documented for this compound, Nc1ccc(N=Nc2ccccc2)c(N)n1 ?
Result: 1

Task: For the compound shown here, Clc1cccc(Cl)c1NC1=NCCN1 , give the reported normalized growth.
Result: 1.01

Task: normalized growth for CC(C)C(=O)Nc1ccc([N+](=O)[O-])c(C(F)(F)F)c1 ?
Result: 0.986

Task: Look up normalized growth for this compound: C/C1=C\CCC(=O)C2CC(C)(C)C2CC1 (stereo not given)
Result: 1.02

Task: Item under review: O=C(O)CN1C(=O)c2cccc3cccc(c23)C1=O . Reported normalized growth?
Result: 0.998

Task: Item under review: O=C(O)c1ccccc1-c1c2cc(Br)c(=O)cc-2oc2[c]([Hg])c(O)c(Br)cc12 . Reported normalized growth?
Result: 1.02
